meta.source: PubChem BioAssay (NCI)

# Test system: HCC-2998 colon
# assay procedure: NCI tumour cell line growth inhibition, 48 h
Task for the reader: assign each of the following compounds its reported TGI.
One number for each entry, in µM.

Observe how each entry below is paired with its result.
* Cc1ccccc1-n1c(/C=C\c2ccccn2)nc2ccccc2c1=O | 29.9
* CCN(Cc1nc2cc(C(F)(F)F)ccc2nc1-c1ccccc1)c1ccc(OC)c(OC)c1 | 34.4

# input for lookup
Query: TGI; subject: CCCCCCCCCCCCOC1C(C(COC2OC(C(O)CN3CCCCC3)C3OC(C)(C)OC23)NC(=O)Nc2ccccc2)OC2OC(C)(C)OC21 (stereo not given)
9.97

* * *

Task for the reader: assign each of the following compounds its reported TGI.
# System: DLD-1 colon
# assay procedure: NCI tumour cell line growth inhibition, 48 h

• COc1ccc(/C=C2\N=C(c3ccccc3)N(Nc3nnc(NN4C(=O)/C(=C/c5ccc(OC)cc5)N=C4c4ccccc4)c4ccccc34)C2=O)cc1 = > 100 µM
• CCOC(=O)C1=C(O)c2ccccc2C(=O)C1=O = > 100 µM
• COC1=CC(C2c3cc4c(cc3[C@@H](Nc3ccc([N+](=O)[O-])cc3)C3COC(=O)[C@H]23)OCO4)=CC(=O)C1=O (stereo partly specified) = > 96.7 µM
• CCOC(OCC)c1ccc(/C=C/c2cc(OC)c(OC)c(OC)c2)cc1 = 38.8 µM

Please give TGI, item by item, for the list that follows.
1. O=C(O)c1ccc(N=Nc2cc(S(=O)(=O)O)c3cccnc3c2O)cc1
2. NC(=O)C12C3C4C1C1C2C3C41C(N)=O (stereo unspecified)
3. CN(C)[C@@H]1C(=O)C(C(=O)NCNCCCC(=O)O)=C(O)[C@@]2(O)C(=O)C3=C(O)c4c(O)cccc4[C@@](C)(O)[C@H]3C[C@@H]12
4. O=C(CCc1ccccc1)On1nnc2ccccc2c1=O
5. CCOC(=O)C1=C(NC(C)(C)C)OCC1=O
6. CN(C)CCNC(=O)c1cccc2nc3c4ccccc4c4ccccc4c3nc12
7. O=C(O)c1cc(-c2ccccc2O)nc2ccccc12

1: > 100 µM; 2: > 100 µM; 3: > 100 µM; 4: > 100 µM; 5: > 100 µM; 6: 2.9 µM; 7: > 100 µM
